Tested on: wild oat (Avena fatua)
Assay: Test C pre-/postemergence plant response
Assay type: in vivo
Details: Preemergence, 16 g ai/ha; scale 0 to 100 (0 no effect, 100 complete control)
Provide the reported Plant response rating, Oat, Wild of each item.
The reply should be a number, written without any unit.

Inquiry: Give wild oat (Avena fatua) Plant response rating, Oat, Wild for CCc1cc(-c2ccc(C(F)(F)F)cc2)nn1-c1c(O)cnn(C)c1=O
Reply text: 98

Inquiry: For the record Cc1cc(-c2ccc(Cl)cc2)nn1-c1c(OC(=O)c2ccccc2)cnn(C)c1=O , what value of Plant response rating, Oat, Wild is listed for wild oat (Avena fatua)?
Reply text: 0

Inquiry: # value lookup — system wild oat (Avena fatua), readout Plant response rating, Oat, Wild, item COC(=O)Oc1cnn(C)c(=O)c1-n1nc(-c2ccc(Cl)cc2)cc1C
Reply text: 25

Inquiry: Tell me reported Plant response rating, Oat, Wild for CCc1cc(-c2ccc(C(F)(F)F)cc2)nn1-c1c(OS(C)(=O)=O)cnn(C)c1=O , tested with wild oat (Avena fatua).
Reply text: 65

Inquiry: Request - read-out Plant response rating, Oat, Wild | tested on wild oat (Avena fatua) | compound Cc1cn(-c2ccc(Cl)cc2)nc1-c1c(O)cnn(C)c1=O
Reply text: 0

Inquiry: Quick check: Plant response rating, Oat, Wild on wild oat (Avena fatua), item CCc1c(C)c(-c2ccc(Cl)cc2)nn1-c1c(O)cnn(C)c1=O ?
Reply text: 15

###

Test system: canarygrass (Phalaris minor)
Test: Test B postemergence plant response
Assay type: in vivo
Conditions: Postemergence, 16 g ai/ha; scale 0 to 100
Experimental: At the same time, plants selected from these crop and weed species and also winter barley (Hordeum vulgare), canarygrass (Phalaris minor), chickweed (Stellaria media) and windgrass (Apera spica-venti) were treated with postemergence applications of some of the test chemicals formulated in the same manner. Plants ranged in height from 2 to 18 cm (1- to 4-leaf stage) for postemergence treatments. […]
Test readout: Plant response rating, Canarygrass
No unit in the answer, please; the number alone is enough.

Inquiry: Enter reported Plant response rating, Canarygrass observed with canarygrass (Phalaris minor) for COCc1cc(-c2ccc(Br)cc2)nn1-c1c(O)cnn(C)c1=O
Reply text: 0

Inquiry: Form: Entry = CCc1cc(-c2ccc(Cl)c(Cl)c2)nn1-c1c(O)cnn(C)c1=O | System = canarygrass (Phalaris minor) | Plant response rating, Canarygrass = ____
Reply text: 30

Inquiry: Under canarygrass (Phalaris minor): Plant response rating, Canarygrass value of Cc1cc(-c2ccc(Br)cc2)nn1-c1c(O)cn[nH]c1=O ?
Reply text: 90

Inquiry: Given the entry Cc1cc(-c2ccc(Br)cc2)nn1-c1c(OC(=O)C2CC2)cnn(C(=O)C2CC2)c1=O , what Plant response rating, Canarygrass was observed with canarygrass (Phalaris minor)?
Reply text: 98

Inquiry: Query Plant response rating, Canarygrass on canarygrass (Phalaris minor) for Cc1nn(C)c(=O)c(-n2nc(-c3ccc(C(F)(F)F)cc3)cc2C)c1O
Reply text: 0

###

Give measured Plant response rating, Velvetleaf for each item. Keep answers brief.
Tested on: velvetleaf (Abutilon theophrasti)
Experiment: Test A pre-/postemergence plant response
Assay type: in vivo
Conditions: Preemergence, 125 g ai/ha; 0 to 100 scale (0 no effect, 100 complete control)

Inquiry: # get_value(readout='Plant response rating, Velvetleaf', item= CCc1cc(-c2ccc(C(F)(F)F)cc2)nn1-c1c(O)cnn(C)c1=O [Compound 11] )
Reply text: 0

Inquiry: State the recorded Plant response rating, Velvetleaf for this entry: Cc1cc(-c2ccc(Cl)cc2)nn1-c1c(OC(=O)C(C)C)cnn(C)c1=O [Compound 34]
Reply text: 0

Inquiry: Find the recorded Plant response rating, Velvetleaf belonging to COc1ccc(-c2cc(C)n(-c3c(O)cnn(C)c3=O)n2)cc1 [Compound 62] and report it.
Reply text: 0
